For each entry below, report its growth value.
Tested on: IGROV1 ovarian
Assay: NCI-60 one-dose screen, 48 h (100 = growth as untreated, 0 = no growth, -100 = all killed)
Conditions: 10 µM
The panel holds about 83,000 compounds, 20% with a hit somewhere; the sample as a whole holds those more often. Active and inactive are the calls of the source. How the source made its calls: active means growth percent below 10; inactive means the rest.

>>> value_observed("O=C1NC(=O)C(Cc2ccccc2)(Cc2ccccc2)C(=O)N1")
"114% (inactive)"
>>> value_observed("CNc1ccc(C(=O)CC(O)CCC(C)C2OC(=O)CC(O)CC(=O)CC(O)CC(O)CC(O)CC(O)CC3(O)CC(O)C(C(=O)OC)C(CC(O[C@@H]4O[C@H](C)[C@@H](O)[C@H](N)[C@@H]4O)/C=C/C=C/C=C/C=C/C=C/C=C/C=C/C2C)O3)cc1 (some centres not stated)")
"3.21% (active)"
>>> value_observed("O=CC(Br)C(Br)c1ccccc1 (configuration not stated)")
"74.8% (inactive)"

Report growth for each item below.
1. COc1cc[c]([Hg][Cl])cc1
2. CN1CC2CCC(C1)C2=O
3. Nc1ncnc2c1c(C(=O)NO)cn2C1OC(CO)C(O)C1O (configuration not stated)
4. O=C(O)C1(Br)CC12c1ccccc1-c1ccccc12 (configuration not stated)

Reply:
15.1% (inactive)
93.8% (inactive)
-71.1% (active)
99.7% (inactive)

Give one value of growth per listed molecule.
1. CC12CC[C@H](O)C=C1/C(=N/O)CC1C2CCC2(C)C1CC[C@@H]2O (some centres not stated)
2. CCN1CC2(CN(CC)C1=S)C(=O)NC(=O)NC2=O
3. COc1ccc(NP2(=O)OCC(C)(N)CO2)cc1 (configuration not stated)
4. COC(=O)C[Se]C(=O)c1ccccc1OC(C)=O

Reply:
94.4% (inactive)
103% (inactive)
102% (inactive)
52% (inactive)

Item: CC1(C)CC(=O)CC(C)(C)N1N=O | System: IGROV1 ovarian | growth: 122% (inactive)
